Collected set of Ki measured with Gonadotropin-releasing hormone receptor (Rattus norvegicus) across studies.
Sequence (P30969 whole entry): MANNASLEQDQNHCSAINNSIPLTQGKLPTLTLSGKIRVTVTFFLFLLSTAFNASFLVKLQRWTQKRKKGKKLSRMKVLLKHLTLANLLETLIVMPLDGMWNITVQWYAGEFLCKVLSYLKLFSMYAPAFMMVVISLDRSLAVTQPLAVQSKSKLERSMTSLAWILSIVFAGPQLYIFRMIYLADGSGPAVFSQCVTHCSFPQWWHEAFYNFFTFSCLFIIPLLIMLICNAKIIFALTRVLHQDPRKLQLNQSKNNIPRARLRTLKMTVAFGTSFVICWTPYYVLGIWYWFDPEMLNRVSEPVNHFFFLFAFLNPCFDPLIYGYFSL
Report the figure in nM without appending any unit label.

Name the recorded Ki for "CCNC(=O)[C@@H]1CCCN1C(=O)[C@H](CCCN=C(N)N)NC(=O)[C@H](CC(C)C)NC(=O)[C@@H](Cc1c[nH]c2ccccc12)NC(=O)[C@H](Cc1ccc(O)cc1)NC(=O)[C@H](CO)NC(=O)[C@H](Cc1ccc(O)cc1)NC(=O)CCc1ccc(F)cc1" . 0.022

Given the compound "CCNC(=O)[C@@H]1CCCN1C(=O)[C@H](CCCN=C(N)N)NC(=O)[C@H](CC(C)C)NC(=O)[C@@H](Cc1c[nH]c2ccccc12)NC(=O)[C@H](Cc1ccc(O)cc1)NC(=O)[C@H](CO)NC(=O)[C@H](Cc1c[nH]c2ccccc12)NC(=O)c1cc2ccccc2[nH]1" , what is its reported Ki? 17

// lookup Ki for "CCNC(=O)[C@H]1CCCN1C(=O)[C@H](CCCN=C(N)N)NC(=O)[C@H](CC(C)C)NC(=O)[C@@H](Cc1ccc(O)cc1)NC(=O)[C@@H](Cc1ccc(O)cc1)NC(=O)[C@H](CO)NC(=O)[C@@H](Cc1c[nH]c2ccccc12)NC(=O)CCc1ccc(F)cc1" 0.01

Need Ki of "CCNC(=O)[C@H]1CCCN1C(=O)[C@H](CCCN=C(N)N)NC(=O)[C@H](CC(C)C)NC(=O)[C@@H](Cc1c[nH]c2ccccc12)NC(=O)[C@H](Cc1ccc(O)cc1)N(C)C(=O)[C@H](CO)NC(=O)[C@H](Cc1c[nH]c2ccccc12)NC(=O)CCc1ccc(Cl)cc1" , thanks. 0.071

Sample "CCNC(=O)[C@@H]1CCCN1C(=O)[C@H](CCCN=C(N)N)NC(=O)[C@H](CC(C)C)NC(=O)[C@@H](Cc1c[nH]c2ccccc12)NC(=O)[C@H](Cc1ccc(O)cc1)NC(=O)[C@H](CO)NC(=O)[C@H](Cc1c[nH]c2ccccc12)NC(=O)Cc1ccccc1" — what was its Ki? 0.832

Reported Ki, compound "CCNC(=O)[C@H]1CCCN1C(=O)[C@H](CCCN=C(N)N)NC(=O)[C@H](CC(C)C)NC(=O)[C@@H](Cc1ccc(Cl)cc1)NC(=O)[C@H](Cc1ccc(O)cc1)NC(=O)[C@H](CO)NC(=O)[C@H](Cc1c[nH]c2ccccc12)NC(=O)CCc1ccc(F)cc1" : ____ 0.018

Reported Ki, compound "CCNC(=O)[C@H]1CCCN1C(=O)[C@H](CCCN=C(N)N)NC(=O)[C@H](CC(C)C)NC(=O)[C@@H](Cc1c[nH]c2ccccc12)NC(=O)[C@H](Cc1ccc(O)cc1)NC(=O)[C@H](CO)NC(=O)[C@@H]1CCCN1C(=O)CCc1ccc(F)cc1" : ____ 0.012

Give the measured Ki of "CCNC(=O)[C@H]1CCCN1C(=O)[C@H](CCCN=C(N)N)NC(=O)[C@H](CC(C)C)NC(=O)[C@@H](CCCCNC(=O)c1cccnc1)NC(=O)[C@H](Cc1ccc(O)cc1)N(C)C(=O)[C@H](CO)NC(=O)[C@H](Cc1c[nH]c2ccccc12)NC(=O)CCc1ccc(Cl)cc1" . 0.02

Reported Ki for "CC(C)C[C@@H](C(=O)N[C@@H](CCCN=C(N)N)C(=O)N1CCC[C@H]1C(=O)NCC(N)=O)N(C)C(=O)[C@@H](Cc1ccc2ccccc2c1)NC(=O)[C@H](Cc1ccc(O)cc1)NC(=O)[C@H](CO)NC(=O)[C@H](Cc1c[nH]c2ccccc12)NC(=O)[C@H](Cc1c[nH]cn1)NC(=O)[C@@H]1CCC(=O)N1" : what is it? 0.03

Fill in: Ki of "CC(C)C[C@H](NC(=O)[C@@H](Cc1ccc2ccccc2c1)NC(=O)[C@H](Cc1ccc(O)cc1)NC(=O)[C@H](CO)NC(=O)[C@H](Cc1c[nH]c2ccccc12)NC(=O)[C@H](Cc1ccccc1)N(C)C(=O)[C@@H]1CCC(=O)N1)C(=O)N[C@@H](CCCN=C(N)N)C(=O)N1CCC[C@H]1C(=O)NCC(N)=O" is ___ 0.3

Entry "COc1ccc(-c2nc3n(Cc4ccccc4F)c(C)c(-c4ccc5c(c4)OCO5)c(=O)n3c2CN(C)CCc2ccccn2)cc1" : reported Ki = ? 12000

Would you mind telling me what Ki value was observed for "CCNC(=O)[C@@H]1CCCN1C(=O)[C@H](CCCN=C(N)N)NC(=O)[C@H](CC(C)C)NC(=O)[C@@H](Cc1c[nH]c2ccccc12)NC(=O)[C@H](Cc1ccc(O)cc1)NC(=O)[C@H](CO)NC(=O)[C@H](Cc1c[nH]c2ccccc12)NC(=O)[C@H](Cc1cnc[nH]1)NC(=O)[C@@H]1CCC(=O)N1" ? 0.01

So what does the record say about Ki for "CC(C)C[C@H](NC(=O)[C@@H](Cc1ccc2ccccc2c1)NC(=O)[C@H](Cc1ccc(O)cc1)NC(=O)[C@H](CO)NC(=O)[C@H](Cc1c[nH]c2ccccc12)NC(=O)[C@H](Cc1c[nH]cn1)NC(=O)[C@@H]1CCC(=O)N1)C(=O)N[C@@H](CCCN=C(N)N)C(=O)N1CCC[C@H]1C(=O)N(C)CC(N)=O" ? 0.03

Can you share its Ki? I mean this compound: "CC(C)C[C@H](NC(=O)[C@@H](Cc1ccc2ccccc2c1)NC(=O)[C@H](Cc1ccc(O)cc1)N(C)C(=O)[C@H](CO)NC(=O)[C@H](Cc1c[nH]c2ccccc12)NC(=O)[C@H](Cc1c[nH]cn1)NC(=O)[C@@H]1CCC(=O)N1)C(=O)N[C@@H](CCCN=C(N)N)C(=O)N1CCC[C@H]1C(=O)NCC(N)=O" 0.03
